Target Desc: Histone deacetylase (HDAC1 and HDAC2) (Homo sapiens, UniProt Q13547+Q92769)
Assay Method Text: Inhibition of HDAC1/HDAC2 in human HeLa cells using Boc-Lys(acetyl)-AMC as substrate after 30 mins by fluorescence assay
Assay type: cell-based

Compound | Relation Operator | IC50, µM
O=C(/C=C/c1ccc(Oc2no[n+]([O-])c2S(=O)(=O)c2ccccc2)cc1)NO | = | 0.15
O=C(CCCCOc1no[n+]([O-])c1S(=O)(=O)c1ccccc1)NO | = | 0.13
O=S(=O)(c1ccccc1)c1no[n+]([O-])c1S(=O)(=O)c1ccccc1 | > | 1000
CCCC(C)(COc1no[n+]([O-])c1S(=O)(=O)c1ccccc1)C(=O)NO (stereo not given) | > | 1000
O=C(CCCCCCCOc1no[n+]([O-])c1S(=O)(=O)c1ccccc1)NO | = | 0.063
CC(C)(COc1no[n+]([O-])c1S(=O)(=O)c1ccccc1)C(=O)NO | > | 1000
COc1cc(C(=O)NO)ccc1Oc1no[n+]([O-])c1S(=O)(=O)c1ccccc1 | = | 7.3
O=C(CCCCCCOc1no[n+]([O-])c1S(=O)(=O)c1ccccc1)NO | = | 0.054
O=C(Cc1ccc(Oc2no[n+]([O-])c2S(=O)(=O)c2ccccc2)cc1)NO | = | 0.14
O=C(NO)c1cccc(Oc2no[n+]([O-])c2S(=O)(=O)c2ccccc2)c1 | = | 1.6

Values were extracted from ChEMBL document CHEMBL3425494.
